# test_system: T1, human MYCT1 (hMYCT1) (human, UniProt Q8N699 1-235, limits assumed)
# T1 construct: also called MYC Target 1
# T1 sequence: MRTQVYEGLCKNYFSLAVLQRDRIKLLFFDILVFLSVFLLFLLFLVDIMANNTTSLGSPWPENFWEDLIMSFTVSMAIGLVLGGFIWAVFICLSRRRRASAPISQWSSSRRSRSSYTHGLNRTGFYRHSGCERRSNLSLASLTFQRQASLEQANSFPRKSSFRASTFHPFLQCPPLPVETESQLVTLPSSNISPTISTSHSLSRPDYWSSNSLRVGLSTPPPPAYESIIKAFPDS
# measurement_notes: SPR koff ranking, single curve, antibody captured via anti-human Fc IgG, 10 nM MYCT1 as analyte, 1:1 binding model
observed_property: koff

>>> measured_value("11B6-z14-uIgG1K (antibody, V domains shown) VH: EVQLVESGGGLVKPGGSLKLSCAASGFTFSDFGIHWVRQAPEKGLEWVGYISSGSRTIHYADTVKGRFTISRDNAKNTLFLQMTNLRSEDTAIYYCARRDWDPEWLAYWGQGTLVTISA VL: DVVMTQSPLSLPVTPGEPASISCRSSLSLVHSNGHTYLHWYLQKPGQSPKLLIYKVSNRFSGVPDRFSGSGSGTDFTLKIRRVEAEDVGVYFCSQSTHVPFTFGQGTKLEIK")
"0.0052 s⁻¹"
>>> measured_value("11B6-z7-uIgG1K (antibody, V domains shown) VH: EVQLVESGGGLVKPGGSLRLSCAASGFTFSDFGIHWVRQAPGKGLEWVSYISSGSRTIHYADTVKGRFTISRDNAKNSLYLQMNSLRAEDTAVYYCARRDWDPEWLAYWGQGTLVTVSS VL: DIVMTQSPLSLPVTPGEPASISCRSSLSLVHSNGHTYLHWYLQKPGQSPQLLIYKVSNRFSGVPDRFSGSGSGTDFTLKIRRVEAEDVGVYYCSQSTHVPFTFGQGTKLEIK")
"0.0473 s⁻¹"
>>> measured_value("11B6-z13-uIgG1K (antibody, V domains shown) VH: EVQLVESGGGLVKPGGSLRLSCAASGFTFSDFGIHWVRQAPGKGLEWVGYISSGSRTIHYADTVKGRFTISRDNAKNTLFLQMNSLRAEDTAIYYCARRDWDPEWLAYWGQGTLVTVSS VL: DVVMTQSPLSLPVTPGEPASISCRSSLSLVHSNGHTYLHWYLQKPGQSPKLLIYKVSNRFSGVPDRFSGSGSGTDFTLKIRRVEAEDVGVYFCSQSTHVPFTFGQGTKLEIK")
"0.00838 s⁻¹"
